Assay: water solubility
Type: physicochemical
Settings: at room temperature
quantity name: solubility

| test smiles | quantity name | reported result |
| --- | --- | --- |
| CO[C@@H]1[C@H](N(C)C(=O)c2ccccc2)C[C@H]2O[C@]1(C)n1c3ccccc3c3c4c(c5c6ccccc6n2c5c31)C(=O)NC4 | solubility | < 0.1 µg/mL |
